system.name: human recombinant GR (Homo sapiens)
measurement.description: Human Glucocorticoid Receptor (GR) Fluorescence Polarisation (FP) Binding Assay
measurement.setup: Ki from IC50 by ligand depletion correction; displacement of Fluorome GS Red
pKi: −log10 of the molar value.
readout.label: pKi

> print(dat)
                                   molecule  measured.value
1  Cn1nccc1S(=O)(=O)N1CC[C@H]2Cc3c(cnn3-c3ccc(F)cc3)C[C@]2(C(=O)c2cc(C(F)(F)F)ccn2)C1 [Example 2J]          < 9.00
2  Cn1cc(S(=O)(=O)N2CC[C@H]3Cc4c(cnn4-c4ccc(F)cc4)C[C@]3(C(=O)c3cc(C(F)(F)F)ccn3)C2)cn1 [Example 2H]          < 9.00
3  CCn1cc(S(=O)(=O)N2CC[C@H]3Cc4c(cnn4-c4ccc(F)cc4)C[C@]3(C(=O)c3cc(C(F)(F)F)ccn3)C2)cn1 [Example 2K]    9.00 to 9.30
4  CN1CCOc2cc(S(=O)(=O)N3CC[C@H]4Cc5c(cnn5-c5ccc(F)cc5)C[C@]4(C(=O)c4ccccn4)C3)cnc21 [Example 2V]          < 9.00
5  CC(C)n1ncc(S(=O)(=O)N2CC[C@H]3Cc4c(cnn4-c4ccc(F)cc4)C[C@]3(C(=O)c3nccs3)C2)n1 [Example 2Z]          > 9.30

* * *

system.name: glucocorticoid receptor (Homo sapiens)
Construct: endogenous in cells
measurement.description: HepG2 Tyrosine Aminotransferase (TAT) Assay
pKi: −log10 of the molar value.
readout.label: pKi

> print(dat)
                            chemical.string  readout.label  measured.value
1  CC(C)n1cc(S(=O)(=O)N2CC[C@H]3Cc4c(cnn4-c4ccc(F)cc4)C[C@]3(C(=O)c3ccccn3)C2)cn1            pKi    7.00 to 7.70
2  CCCn1nncc1S(=O)(=O)N1CC[C@H]2Cc3c(cnn3-c3ccc(F)cc3)C[C@]2(C(=O)c2nccs2)C1            pKi          < 7.00
3  CCn1ncc(S(=O)(=O)N2CC[C@H]3Cc4c(cnn4-c4ccc(F)cc4)C[C@]3(C(=O)c3cscn3)C2)n1            pKi          > 7.70
4  CCCn1cc(S(=O)(=O)N2CC[C@H]3Cc4c(cnn4-c4ccc(F)cc4)C[C@]3(C(=O)c3ccccn3)C2)cn1            pKi          > 7.70
5  O=C(c1ccccn1)[C@]12Cc3cnn(-c4ccc(F)cc4)c3C[C@@H]1CCN(S(=O)(=O)c1cccc(F)c1)C2            pKi    7.00 to 7.70
6  N#Cc1cccc(S(=O)(=O)N2CC[C@H]3Cc4c(cnn4-c4ccc(F)cc4)C[C@]3(C(=O)c3ccccn3)C2)c1            pKi    7.00 to 7.70

* * *

system.name: glucocorticoid receptor (Homo sapiens, UniProt P04150)
Construct: endogenous in cells
Sequence (P04150 1-777): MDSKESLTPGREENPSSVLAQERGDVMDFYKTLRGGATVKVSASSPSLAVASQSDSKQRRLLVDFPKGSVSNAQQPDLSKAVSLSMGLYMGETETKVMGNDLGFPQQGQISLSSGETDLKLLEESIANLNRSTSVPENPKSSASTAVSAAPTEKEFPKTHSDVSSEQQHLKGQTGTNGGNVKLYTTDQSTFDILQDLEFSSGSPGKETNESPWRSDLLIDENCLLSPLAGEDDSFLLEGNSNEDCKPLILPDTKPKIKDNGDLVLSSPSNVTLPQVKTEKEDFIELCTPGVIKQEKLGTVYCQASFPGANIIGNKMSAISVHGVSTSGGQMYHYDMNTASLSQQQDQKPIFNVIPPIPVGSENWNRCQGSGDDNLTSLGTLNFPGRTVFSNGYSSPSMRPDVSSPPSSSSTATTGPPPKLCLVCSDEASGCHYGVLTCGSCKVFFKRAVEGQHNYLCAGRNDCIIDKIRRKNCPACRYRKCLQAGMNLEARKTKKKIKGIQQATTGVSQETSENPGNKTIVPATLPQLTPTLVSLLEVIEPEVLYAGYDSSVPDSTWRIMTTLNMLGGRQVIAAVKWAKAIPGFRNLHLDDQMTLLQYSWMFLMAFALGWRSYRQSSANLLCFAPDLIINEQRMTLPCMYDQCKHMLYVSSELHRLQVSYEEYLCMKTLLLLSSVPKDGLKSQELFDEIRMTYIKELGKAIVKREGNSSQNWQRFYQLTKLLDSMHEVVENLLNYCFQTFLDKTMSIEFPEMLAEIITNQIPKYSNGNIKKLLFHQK
measurement.description: HepG2 Tyrosine Aminotransferase (TAT) Assay
Experimental: Glucocorticoid mediated activation of TAT occurs by transactivation of glucocorticoid response elements in the TAT promoter by glucocorticoid receptor-agonist complex. HepG2 cells were cultured using MEME media supplemented with 10% (v/v) foetal bovine serum; 2 mM L-glutamine and 1% (v/v) NEAA at 37° C., 5%/95% (v/v) CO2/air. Compounds were serially half log diluted in 100% (v/v) dimethylsulphoxide from a 10 mM stock. […]
Ki reference
readout.label: Ki

> print(dat)
                                    compound                               system.name  readout.label  measured.value
 1  O=C(c1ccccn1)[C@]12Cc3cnn(-c4ccc(F)cc4)c3C[C@@H]1CCN(S(=O)(=O)c1cccc(C(F)(F)F)n1)C2 [Example 2Q]  glucocorticoid receptor (Homo sapiens, UniProt P04150)             Ki         < 20 nM
 2  O=C(c1cc(C(F)(F)F)ccn1)[C@]12Cc3cnn(-c4ccc(F)cc4)c3C[C@@H]1CCN(S(=O)(=O)c1cn[nH]n1)C2 [Example 2AE]  glucocorticoid receptor (Homo sapiens, UniProt P04150)             Ki        > 100 nM
 3  CCCn1ncc(S(=O)(=O)N2CC[C@H]3Cc4c(cnn4-c4ccc(F)cc4)C[C@]3(C(=O)c3ccccn3)C2)n1 [Example 2A]  glucocorticoid receptor (Homo sapiens, UniProt P04150)             Ki         < 20 nM
 4  Cc1ccnc(C(=O)[C@]23Cc4cnn(-c5ccc(F)cc5)c4C[C@@H]2CCN(S(=O)(=O)c2cnn(C)n2)C3)c1 [Example 2R]  glucocorticoid receptor (Homo sapiens, UniProt P04150)             Ki         < 20 nM
 5  O=C(c1ccccn1)[C@]12Cc3cnn(-c4ccc(F)cc4)c3C[C@@H]1CCN(S(=O)(=O)c1ccc(C(F)(F)F)cc1)C2 [Example 1A]  glucocorticoid receptor (Homo sapiens, UniProt P04150)             Ki    20 to 100 nM
 6  O=C(c1ccccn1)[C@]12Cc3cnn(-c4ccc(F)cc4)c3C[C@@H]1CCN(S(=O)(=O)c1ccc(Cl)c(Cl)c1)C2 [Example 1B]  glucocorticoid receptor (Homo sapiens, UniProt P04150)             Ki    20 to 100 nM
 7  Cn1nncc1S(=O)(=O)N1CC[C@H]2Cc3c(cnn3-c3ccc(F)cc3)C[C@]2(C(=O)c2cc(C(F)(F)F)ccn2)C1 [Example 2X]  glucocorticoid receptor (Homo sapiens, UniProt P04150)             Ki        > 100 nM
 8  CCn1ncc(S(=O)(=O)N2CC[C@H]3Cc4c(cnn4-c4ccc(F)cc4)C[C@]3(C(=O)c3cc(C(F)(F)F)ccn3)C2)n1 [Example 2O]  glucocorticoid receptor (Homo sapiens, UniProt P04150)             Ki         < 20 nM
 9  CN1CCOc2cc(S(=O)(=O)N3CC[C@H]4Cc5c(cnn5-c5ccc(F)cc5)C[C@]4(C(=O)c4ccccn4)C3)cnc21 [Example 2V]  glucocorticoid receptor (Homo sapiens, UniProt P04150)             Ki    20 to 100 nM
10  Cn1ncc(S(=O)(=O)N2CC[C@H]3Cc4c(cnn4-c4ccc(F)cc4)C[C@]3(C(=O)c3nccs3)C2)n1 [Example 2Y]  glucocorticoid receptor (Homo sapiens, UniProt P04150)             Ki        > 100 nM
11  O=C(c1nccs1)[C@]12Cc3cnn(-c4ccc(F)cc4)c3C[C@@H]1CCN(S(=O)(=O)c1ccc(C(F)(F)F)cc1)C2 [Example 2M]  glucocorticoid receptor (Homo sapiens, UniProt P04150)             Ki    20 to 100 nM
12  O=C(c1ccccn1)[C@]12Cc3cnn(-c4ccc(F)cc4)c3C[C@@H]1CCN(S(=O)(=O)c1ccc(F)c(F)c1)C2 [Example 1C]  glucocorticoid receptor (Homo sapiens, UniProt P04150)             Ki    20 to 100 nM
13  CC(C)n1cc(S(=O)(=O)N2CC[C@H]3Cc4c(cnn4-c4ccc(F)cc4)C[C@]3(C(=O)c3ccccn3)C2)nn1 [Example 2AF]  glucocorticoid receptor (Homo sapiens, UniProt P04150)             Ki    20 to 100 nM
14  Cn1ncc(S(=O)(=O)N2CC[C@H]3Cc4c(cnn4-c4ccc(F)cc4)C[C@]3(C(=O)c3cscn3)C2)n1 [Example 2AI]  glucocorticoid receptor (Homo sapiens, UniProt P04150)             Ki    20 to 100 nM
15  CCn1ncc(S(=O)(=O)N2CC[C@H]3Cc4c(cnn4-c4ccc(F)cc4)C[C@]3(C(=O)c3ccccn3)C2)n1 [Example 2AB]  glucocorticoid receptor (Homo sapiens, UniProt P04150)             Ki    20 to 100 nM
16  Cn1ncc(S(=O)(=O)N2CC[C@H]3Cc4c(cnn4-c4ccc(F)cc4)C[C@]3(C(=O)c3cc(C(F)(F)F)ccn3)C2)n1 [Example 2C]  glucocorticoid receptor (Homo sapiens, UniProt P04150)             Ki         < 20 nM
17  Cn1cc(S(=O)(=O)N2CC[C@H]3Cc4c(cnn4-c4ccc(F)cc4)C[C@]3(C(=O)c3cc(C(F)(F)F)ccn3)C2)cn1 [Example 2H]  glucocorticoid receptor (Homo sapiens, UniProt P04150)             Ki    20 to 100 nM
18  Cn1ncc(S(=O)(=O)N2CC[C@H]3Cc4c(cnn4-c4ccc(F)cc4)C[C@]3(C(=O)c3ccccn3)C2)n1 [Example 2AC]  glucocorticoid receptor (Homo sapiens, UniProt P04150)             Ki    20 to 100 nM
19  CCn1cc(S(=O)(=O)N2CC[C@H]3Cc4c(cnn4-c4ccc(F)cc4)C[C@]3(C(=O)c3cc(C(F)(F)F)ccn3)C2)cn1 [Example 2K]  glucocorticoid receptor (Homo sapiens, UniProt P04150)             Ki    20 to 100 nM
20  O=C(c1cscn1)[C@]12Cc3cnn(-c4ccc(F)cc4)c3C[C@@H]1CCN(S(=O)(=O)c1cccc(C(F)(F)F)n1)C2 [Example 2AH]  glucocorticoid receptor (Homo sapiens, UniProt P04150)             Ki         < 20 nM
21  CC(C)n1ncc(S(=O)(=O)N2CC[C@H]3Cc4c(cnn4-c4ccc(F)cc4)C[C@]3(C(=O)c3cc(C(F)(F)F)ccn3)C2)n1 [Example 2AD]  glucocorticoid receptor (Homo sapiens, UniProt P04150)             Ki         < 20 nM
